Property: pIC50; scope: individual compounds
test system: 282377-053-R-J1-PDC tumor spheroids, viability; assay: Anticancer human tumor 282377-053-R-J1-PDC patient-derived colon adenocarcinoma cell line growth inhibition [TAK]; conditions: curve of first compound; second compound 0.949 µM; spheroids with HUVEC and MSC;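 further: spheroids exposed to drugs for seven days before readout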
Expect pIC50 as a plain number equal to -log10 of the molar concentration.

Any idea what its pIC50 is? The compound is COc1c(OCCCN2CCOCC2)ccc2c3n(c(=NC(=O)c4cnc(N)nc4)nc12)CCN3 + CC(C)NCC(C(=O)N1CCN(c2ncnc3c2C(C)CC3O)CC1)c1ccc(Cl)cc1
6.17

Any idea what its pIC50 is? The compound is CCCS(=O)(=O)Nc1ccc(F)c(C(=O)c2c[nH]c3ncc(-c4ccc(Cl)cc4)cc23)c1F + CC(C)NCC(C(=O)N1CCN(c2ncnc3c2C(C)CC3O)CC1)c1ccc(Cl)cc1
5.16

Any idea what its pIC50 is? The compound is CC(C)n1nc(-c2ccc3oc(N)nc3c2)c2c(N)ncnc21 + CC(C)NCC(C(=O)N1CCN(c2ncnc3c2C(C)CC3O)CC1)c1ccc(Cl)cc1
7.18
